Source: patent US20250295815A1

# em max listing for each entry below
assay: Dyad photophysical properties in toluene, excited at 405 nm; type: physicochemical; settings: room temperature, excited at 405 nm

chem.smiles | em max
COc1c2nc(cc3ccc([nH]3)c(-c3ccc(-c4c5nc(cc6ccc(cc7nc(cc8ccc4[nH]8)C=C7)[nH]6)C=C5)cc3)c3nc(cc4ccc1[nH]4)C(C)(C)C3)C(C)(C)C2 | 714 nm
COC(=O)c1ccc(-c2c3nc(cc4ccc(cc5nc(cc6[nH]c2cc6C#Cc2ccc(CNC(=O)c6ccc(-c7c8nc(cc9ccc([nH]9)c(-c9c(C)cc(C)cc9C)c9nc(cc%10ccc7[nH]%10)C=C9)C=C8)cc6)cc2)CC5(C)C)[nH]4)C=C3)cc1 | 659 nm

---

test: Dyad photophysical properties in toluene, excited at 405 nm; assay type: physicochemical; parameters: unit not given here; conditions: molar absorption coefficient x fluorescence quantum yield, at abs max

molecule | brightness (abs max)
COC(=O)c1ccc(-c2c3nc(cc4[nH]c(cc5nc(cc6[nH]c2cc6-c2ccc(CNC(=O)c6ccc(C7=C8C=CC(=N8)C=c8ccc9[n]8[Zn][n]8c(ccc87)C=C7C=CC(=N7)C=9)cc6)cc2)CC5(C)C)cc4-c2ccccc2)C=C3)cc1 [P2-C1, methyl ester] | 94,791
COC(=O)c1c(C#Cc2ccc(-c3c4nc(cc5ccc(cc6nc(cc7ccc3[nH]7)C=C6)[nH]5)C=C4)cc2)c2cc3nc(c(OC)c4[nH]c(cc5nc(cc1[nH]2)CC5(C)C)c(C#Cc1ccc(-c2c5nc(cc6ccc(cc7nc(cc8ccc2[nH]8)C=C7)[nH]6)C=C5)cc1)c4C(=O)OC)CC3(C)C [Dyad P1-BC2] | 60,845
COC(=O)c1ccc(-c2c3nc(cc4[nH]c(cc5nc(cc6[nH]c2cc6-c2ccc(CNC(=O)c6ccc(-c7c8nc(cc9ccc([nH]9)c(-c9c(C)cc(C)cc9C)c9nc(cc%10ccc7[nH]%10)C=C9)C=C8)cc6)cc2)CC5(C)C)cc4-c2ccccc2)C=C3)cc1 | 106,623
COC(=O)c1ccc(C#Cc2cc3cc4nc(cc5[nH]c(cc6nc(c(OC)c2[nH]3)CC6(C)C)cc5C#Cc2ccc(-c3c5nc(cc6ccc(cc7nc(cc8ccc3[nH]8)C=C7)[nH]6)C=C5)cc2)CC4(C)C)cc1 [Dyad P1-BC1] | 64,405
COC(=O)c1ccc(-c2c3nc(cc4[nH]c(cc5nc(cc6[nH]c2cc6C#Cc2ccc(-c6c7nc(cc8ccc(cc9nc(cc%10ccc6[nH]%10)C=C9)[nH]8)C=C7)cc2)CC5(C)C)cc4C#Cc2ccc(-c4c5nc(cc6ccc(cc7nc(cc8ccc4[nH]8)C=C7)[nH]6)C=C5)cc2)C=C3)cc1 [Dyad P1-C6] | 81,579
COC(=O)c1ccc(-c2c3nc(cc4ccc(cc5nc(cc6[nH]c2cc6C#Cc2ccc(-c6c7nc(cc8ccc([nH]8)c(-c8c(C)cc(C)cc8C)c8nc(cc9ccc6[nH]9)C=C8)C=C7)cc2)CC5(C)C)[nH]4)C=C3)cc1 | 60,532
COc1c2nc(cc3ccc([nH]3)c(-c3ccc(-c4c5nc(cc6ccc(cc7nc(cc8ccc4[nH]8)C=C7)[nH]6)C=C5)cc3)c3nc(cc4ccc1[nH]4)C(C)(C)C3)C(C)(C)C2 | 20,998
COC(=O)c1ccc(-c2c3nc(cc4ccc(cc5nc(cc6[nH]c2cc6C#Cc2ccc(C6=C7C=CC(=N7)C=c7ccc8[n]7[Zn][n]7c(ccc76)C=C6C=CC(=N6)C=8)cc2)CC5(C)C)[nH]4)C=C3)cc1 | 88,133
COC(=O)c1ccc(-c2c3nc(cc4ccc(cc5nc(cc6[nH]c2cc6C#Cc2ccc(CNC(=O)c6ccc(C7=C8C=CC(=N8)C=c8ccc9[n]8[Zn][n]8c(ccc87)C=C7C=CC(=N7)C=9)cc6)cc2)CC5(C)C)[nH]4)C=C3)cc1 | 23,813
COC(=O)c1ccc(C2=c3ccc4[n]3[Zn][n]3c(ccc3C(c3ccc(C#Cc5ccc(C6=c7ccc8[n]7[Zn][n]7c(ccc7C=C7N=C(C=8)CC7(C)C)C=C7C=CC6=N7)cc5)cc3)=C3C=CC(=N3)C=4)C=C3C=CC2=N3)cc1 | 11,570
COC(=O)c1ccc(-c2c3nc(cc4ccc(cc5nc(cc6[nH]c2cc6C#Cc2ccc(CNC(=O)c6ccc(-c7c8nc(cc9ccc([nH]9)c(-c9c(C)cc(C)cc9C)c9nc(cc%10ccc7[nH]%10)C=C9)C=C8)cc6)cc2)CC5(C)C)[nH]4)C=C3)cc1 | 17,413
COC(=O)c1ccc(-c2c(C(=O)OC)c3cc4nc(cc5[nH]c(c(OC)c6nc(cc2[nH]3)C(C)(C)C6)c(C(=O)OC)c5C#Cc2ccc(C3=C5C=CC(=N5)C=c5ccc6[n]5[Zn][n]5c(ccc53)C=C3C=CC(=N3)C=6)cc2)C(C)(C)C4)cc1 | 52,298

---

test: Dyad photophysical properties in toluene, excited at 405 nm; assay type: physicochemical; conditions: emission peak, room temperature, excited at 405 nm

compound | FWHM / nm
COC(=O)c1ccc(C#Cc2cc3cc4nc(cc5[nH]c(cc6nc(c(OC)c2[nH]3)CC6(C)C)cc5C#Cc2ccc(-c3c5nc(cc6ccc(cc7nc(cc8ccc3[nH]8)C=C7)[nH]6)C=C5)cc2)CC4(C)C)cc1 [Dyad P1-BC1] | 21
COC(=O)c1ccc(-c2c3nc(cc4[nH]c(cc5nc(cc6[nH]c2cc6-c2ccc(CNC(=O)c6ccc(-c7c8nc(cc9ccc([nH]9)c(-c9c(C)cc(C)cc9C)c9nc(cc%10ccc7[nH]%10)C=C9)C=C8)cc6)cc2)CC5(C)C)cc4-c2ccccc2)C=C3)cc1 | 18

---

experiment: Dyad photophysical properties in toluene, excited at 405 nm; assay type: physicochemical; conditions: room temperature

compound | abs max B [nm]
COc1c2nc(cc3ccc([nH]3)c(-c3ccc(-c4c5nc(cc6ccc(cc7nc(cc8ccc4[nH]8)C=C7)[nH]6)C=C5)cc3)c3nc(cc4ccc1[nH]4)C(C)(C)C3)C(C)(C)C2 [Dyad P11-BC3] | 407
COC(=O)c1ccc(-c2c3nc(cc4ccc(cc5nc(cc6[nH]c2cc6C#Cc2ccc(-c6c7nc(cc8ccc([nH]8)c(-c8c(C)cc(C)cc8C)c8nc(cc9ccc6[nH]9)C=C8)C=C7)cc2)CC5(C)C)[nH]4)C=C3)cc1 [P7-C1; P6-C3] | 410
COC(=O)c1ccc(-c2c3nc(cc4[nH]c(cc5nc(cc6[nH]c2cc6-c2ccc(CNC(=O)c6ccc(-c7c8nc(cc9ccc([nH]9)c(-c9c(C)cc(C)cc9C)c9nc(cc%10ccc7[nH]%10)C=C9)C=C8)cc6)cc2)CC5(C)C)cc4-c2ccccc2)C=C3)cc1 [Dyad P3-C1] | 410
COC(=O)c1ccc(-c2c3nc(cc4ccc(cc5nc(cc6[nH]c2cc6C#Cc2ccc(CNC(=O)c6ccc(C7=C8C=CC(=N8)C=c8ccc9[n]8[Zn][n]8c(ccc87)C=C7C=CC(=N7)C=9)cc6)cc2)CC5(C)C)[nH]4)C=C3)cc1 [Dyad P4-C3] | 407
COC(=O)c1ccc(C2=c3ccc4[n]3[Zn][n]3c(ccc3C(c3ccc(C#Cc5ccc(C6=c7ccc8[n]7[Zn][n]7c(ccc7C=C7N=C(C=8)CC7(C)C)C=C7C=CC6=N7)cc5)cc3)=C3C=CC(=N3)C=4)C=C3C=CC2=N3)cc1 [P9-C4, methyl ester] | 414
